Assay: qHTS assay for small molecules that induce genotoxicity in human embryonic kidney cells expressing luciferase-tagged ATAD5 - cell viability (AID 651634); note: nearly all actives have a fitted effect of over 25% in size
Details: HEK293T ATAD5-luc cells viability, CellTiter-Fluor, 15.5 h; series mostly up to 83.3 µM
Results filed as inconclusive are left out. Active and inactive are the calls of the source. Calls come from the whole dose curve.
The reply should be one of these categories: y for active, n for inactive

[[record]]
smiles_text = "CCCCCCCOC(=O)c1ccc(O)cc1"
label = "n"

[[record]]
smiles_text = "CC(C)(c1cc(Br)c(OCCO)c(Br)c1)c1cc(Br)c(OCCO)c(Br)c1"
label = "y"

[[record]]
smiles_text = "CSc1c(Cl)c(Cl)c(Cl)c(Cl)c1Cl"
label = "n"

[[record]]
smiles_text = "Cc1ccc2ccc3cccc4ccc1c2c34"
label = "n"

[[record]]
smiles_text = "Oc1c(Br)cc(Br)c2cccnc12"
label = "n"

[[record]]
smiles_text = "Cc1cn[nH]c1"
label = "n"


Now look at this entry.
In this assay, the call recorded for `CCCCCCCCCCCCCCNCCO` was what?
n

---

Assay: qHTS assay to identify small molecule agonists of the estrogen receptor beta (ER-beta) signaling pathway - cell viability counter screen (AID 1259380); note: % is set by controls: 0 for no effect and ±100 for the full control effect; nearly all actives have a fitted effect of over 30% in size
Settings: ER-beta-bla HEK293T viability, CellTiter-Glo luminescence, 16 h; series mostly up to 92.4 µM
Description: National Center for Advancing Translational Sciences [NCATS] NIH Chemical Genomics Center [NCGC] U.S. Environmental Protection Agency [EPA] National Institutes of Environmental Health Sciences [NIEHS] National Toxicology Program [NTP] U.S. Food and Drug Administration [FDA] Estrogen receptor (ER), a nuclear hormone receptor, plays an important role in development, metabolic homeostasis and reproduction. […]
Results filed as inconclusive are left out. Activity calls are given as the source filed them. The call rests on the fitted dose curve; in most records, active means well fitted cell-killing curve with a large enough effect in the repeat runs; inconclusive means weak or mixed curves, or effect the other way; inactive means flat fitted curve, though single readings scatter.
Provide the reported activity change, negative = cytotoxicity of each item.

Worked examples follow.
[[record]]
smiles_text = "O=C=NCc1cccc(CN=C=O)c1"
value_measured = "2.31% [at 19 µM] (inactive)"

[[record]]
smiles_text = "N[C@@H](CSSC[C@H](N)C(=O)O)C(=O)O"
value_measured = "3.32% [at 0.349 µM] (inactive)"

[[record]]
smiles_text = "O=S(=O)(O)c1cc(S(=O)(=O)O)c2ccc3c(S(=O)(=O)O)cc(S(=O)(=O)O)c4ccc1c2c43"
value_measured = "1.19% [at 19 µM] (inactive)"

[[record]]
smiles_text = "C=C/C=C/C=C/CCCCC"
value_measured = "-7.99% [at 19 µM] (inactive)"

[[record]]
smiles_text = "COc1cc(C(C)C)c2c(c1)S(=O)(=O)N(COc1cc(=O)n3cccc(OCCN4CCCCC4)c3n1)C2=O"
value_measured = "-6.94% [at 19 µM] (inactive)"


Shifting focus to the compound that follows.
Suppose we examine the compound `O=S(O)O` ; what activity change, negative = cytotoxicity value has been reported?
-0.0055% [at 19 µM] (inactive)

---

Experiment: qHTS assay to identify aromatase inhibitors - cell viability counter screen (AID 743084);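 note: cells stimulated with testosterone during compound exposure; nearly all actives have a fitted effect of over 55% in size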
Settings: MCF-7 aro ERE viability, CellTiter-Fluor, 24 h; series mostly up to 70.3 µM
Results filed as inconclusive are left out. Calls of active or inactive are those of the source. The call rests on the fitted dose curve; in most records, active means well fitted cell-killing curve with a large enough effect in the repeat runs; inconclusive means weak or mixed curves, or effect the other way; inactive means no such curve, though single readings can be large or run the other way.
Field 'call' accepts active, inactive

Answered examples (5):
[[record]]
molecule = "CCCN(CCc1cccs1)[C@H]1CCc2c(O)cccc2C1"
label = "inactive"

[[record]]
molecule = "Cc1cc(Nc2ccc(O)cc2)ccc1N"
label = "active"

[[record]]
molecule = "O=C1NCCN1CCN1CCC(c2cn(-c3ccc(F)cc3)c3ccc(Cl)cc23)CC1"
label = "active"

[[record]]
molecule = "C=CC(=O)OCC(O)COc1ccccc1 (stereo not given)"
label = "active"

[[record]]
molecule = "CN(C)CCCN1c2ccccc2Sc2ccc(C(F)(F)F)cc21"
label = "inactive"


Please share the test call associated with `O=C(O)CC(=O)O` .
inactive

Short answer needed: outcome of this test for `CC(C)OC(=O)c1cc(C(=O)OC(C)C)cc([N+](=O)[O-])c1` ?
inactive

// param item: Clc1ccc(C(Cn2ccnc2)OCc2ccsc2Cl)c(Cl)c1 (stereo not given) ; yields the recorded call
inactive

Answer briefly: the call reported for `CC(=O)OC(OC(C)=O)c1ccc([N+](=O)[O-])o1` in this assay.
active

Hi, sorry to bother you, what did the test record for `Cc1occc1SSc1ccoc1C` ?
active

Field: outcome | Entry: CC(COC(=O)c1ccccc1)OC(=O)c1ccccc1 (stereo not given)
inactive

For `CC=O` , which call appears in the assay record?
active

Hello, I am checking results. What call was entered for `Cn1cnc2ncnc(N)c21` ?
inactive

Recorded test call requested for `Oc1c(Br)cc(Br)c2cccnc12`
inactive

Dear all, I need the recorded test outcome for `c1ccc(Nc2cccc3ccccc23)cc1` , thank you.
active

What call does the record list for `c1cc2c3c(c1)ccc1cccc(c13)C2` ?
inactive

Could you check what this test reported for `C=C(C)C(=O)OCCC[Si](Cl)(Cl)Cl` ?
inactive

Fill in: this test's call for `CCOC(=O)COc1ccc(C)cc1` is ___
inactive

What did the test return for `CC(C)=C1CC[C@@H](C)CC1=O` ?
inactive

So what was the verdict on CCC(C)c1cc([N+](=O)[O-])cc([N+](=O)[O-])c1OC(=O)OC(C)C (stereo not given) in this test?
active

meta.source: PubChem BioAssay (Tox21)
